The values you see were collected from patent US8003785B2.

Target: PLK1 (Homo sapiens)
Construct: Full-length, active GST-PLK1 is purified from Sf9 insect cells; made in house; host or cells: Sf9 insect cells
Assay: Biochemical Characterization Assay: HTRF kinase assay, GST-PLK1 phosphorylation of GST-p53
Conditions: GST-PLK1, GST-p53 substrate
pIC50: −log10 of the molar value.
quantity.measured: pIC50

| compound | subject.of.test | quantity.measured | reported.measurement |
| --- | --- | --- | --- |
| CN1C(=O)C(F)(F)CN(C2CCCCC2)c2nc(Nc3ccc(C(=O)O)cc3)ncc21 [Example I-256] | PLK1 (Homo sapiens) | pIC50 | 7.30 to 9.00 |
| COc1cc(C(N)=O)ccc1Nc1ncc2c(n1)N(CCc1ccccc1)CC(F)(F)C(=O)N2C [Example I-277] | PLK1 (Homo sapiens) | pIC50 | 6.30 to 7.29 |
| COc1cc(C(=O)NCCCN(C)C)ccc1Nc1ncc2c(n1)N(CCc1ccccc1)CC(F)(F)C(=O)N2C [Example I-279] | PLK1 (Homo sapiens) | pIC50 | 6.30 to 7.29 |
| COc1cc(C(=O)O)ccc1Nc1ncc2c(n1)N(CCc1cccs1)CC(F)(F)C(=O)N2C [Example I-269] | PLK1 (Homo sapiens) | pIC50 | 6.30 to 7.29 |

---

Target: PLK1 (Homo sapiens, UniProt P53350)
Construct: Full-length, active GST-PLK1 is purified from Sf9 insect cells; made in house; host or cells: Sf9 insect cells
Sequence (P53350 whole entry): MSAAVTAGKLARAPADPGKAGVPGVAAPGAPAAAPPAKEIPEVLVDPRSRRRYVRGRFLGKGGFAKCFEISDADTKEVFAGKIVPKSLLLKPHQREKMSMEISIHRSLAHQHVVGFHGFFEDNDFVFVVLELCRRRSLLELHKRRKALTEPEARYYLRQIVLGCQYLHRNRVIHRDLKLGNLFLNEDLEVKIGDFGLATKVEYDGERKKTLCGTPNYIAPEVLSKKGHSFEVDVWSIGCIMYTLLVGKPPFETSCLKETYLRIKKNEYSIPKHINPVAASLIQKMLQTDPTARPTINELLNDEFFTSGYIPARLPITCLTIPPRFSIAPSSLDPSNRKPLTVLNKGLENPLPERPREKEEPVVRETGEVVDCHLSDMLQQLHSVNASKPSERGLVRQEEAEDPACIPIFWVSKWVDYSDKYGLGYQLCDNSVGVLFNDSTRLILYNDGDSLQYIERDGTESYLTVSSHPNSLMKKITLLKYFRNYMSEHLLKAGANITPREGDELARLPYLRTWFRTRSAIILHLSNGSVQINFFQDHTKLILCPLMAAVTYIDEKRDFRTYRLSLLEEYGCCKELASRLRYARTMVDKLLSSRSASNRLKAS
Assay: Biochemical Characterization Assay: HTRF kinase assay, GST-PLK1 phosphorylation of GST-p53
Conditions: GST-PLK1, GST-p53 substrate, ATP
pIC50: −log10 of the molar value.
quantity.measured: pIC50

| molecule | quantity.measured | reported.measurement |
| --- | --- | --- |
| CCN1CCC(NC(=O)c2ccc(Nc3ncc4c(n3)N(C3CCCC3)CC(F)(F)C(=O)N4C)c(OC)c2)CC1 [Example I-67] | pIC50 | 7.30 to 9.00 |
| COc1cc(C(=O)NC2CCN(C(=O)OCC3c4ccccc4-c4ccccc43)CC2)ccc1Nc1ncc2c(n1)N(C1CCCC1)CC(F)(F)C(=O)N2C [Example I-70] | pIC50 | 7.30 to 9.00 |
| CNC(=O)c1ccc(Nc2ncc3c(n2)N(C2CCCC2)CC(F)(F)C(=O)N3)cc1 [Example I-133] | pIC50 | 5.30 to 6.30 |
| COc1cc(C(=O)NCCCn2ccnc2)ccc1Nc1ncc2c(n1)N(C1CCCC1)CC(F)(F)C(=O)N2C [Example I-61] | pIC50 | 7.30 to 9.00 |
| NC(=O)c1ccc(Nc2ncc3c(n2)N(C2CCCC2)CC(F)(F)C(=O)N3)cc1 [Example I-132] | pIC50 | < 5.30 |
| CN1CCC(NC(=O)c2ccc(Nc3ncc4c(n3)N(C3CCC3)CC(F)(F)C(=O)N4C)cc2)CC1 [Example I-16] | pIC50 | 7.30 to 9.00 |
| CNC(=O)c1ccc(Nc2ncc3c(n2)N(C2CCC2)CC(F)(F)C(=O)N3C)cc1 [Example I-13] | pIC50 | 6.30 to 7.29 |

---

In this section we review reported pIC50 values for a set of compounds.
Target: PLK1 (Homo sapiens, UniProt P53350)
Construct: Full-length, active GST-PLK1 is purified from Sf9 insect cells; made in house; host or cells: Sf9 insect cells
Experiment: Biochemical Characterization Assay: HTRF kinase assay, GST-PLK1 phosphorylation of GST-p53
Details: GST-PLK1, GST-p53 substrate, ATP
pIC50: −log10 of the molar value.

| compound | subject.of.test | pIC50 |
| --- | --- | --- |
| COc1cc(C(=O)N[C@@H]2CN(C(=O)OC(C)(C)C)C[C@H]2O)ccc1Nc1ncc2c(n1)N(C1CCCC1)CC(F)(F)C(=O)N2C [Example I-103] | PLK1 (Homo sapiens, UniProt P53350) | 7.30 to 9.00 |
| COc1cc(C(=O)NCc2cc(Cl)cc(Cl)c2)ccc1Nc1ncc2c(n1)N(C1CCCC1)CC(F)(F)C(=O)N2C [Example I-42] | PLK1 (Homo sapiens, UniProt P53350) | 7.30 to 9.00 |
| COc1cc(C(=O)NCCCN2CCOCC2)ccc1Nc1ncc2c(n1)N(C1CCCC1)CC(F)(F)C(=O)N2C [Example I-79] | PLK1 (Homo sapiens, UniProt P53350) | 7.30 to 9.00 |
| COc1cc(C(=O)N[C@H]2CCNC(=O)C2)ccc1Nc1ncc2c(n1)N(C1CCCC1)CC(F)(F)C(=O)N2C [Example I-90] | PLK1 (Homo sapiens, UniProt P53350) | 7.30 to 9.00 |
| COc1cc(C(=O)NC2CCN(C(=O)OC(C)(C)C)CC2)ccc1Nc1ncc2c(n1)N(C1CCCC1)CC(F)(F)C(=O)N2C [Example I-71] | PLK1 (Homo sapiens, UniProt P53350) | 6.30 to 7.29 |
| CCN(CC)CCCNC(=O)c1ccc(Nc2ncc3c(n2)N(C2CCCC2)CC(F)(F)C(=O)N3C)c(OC)c1 [Example I-123] | PLK1 (Homo sapiens, UniProt P53350) | 7.30 to 9.00 |
| COc1cc(C(=O)NC2CCN(CCCS(C)(=O)=O)CC2)ccc1Nc1ncc2c(n1)N(C1CCCC1)CC(F)(F)C(=O)N2C [Example I-76] | PLK1 (Homo sapiens, UniProt P53350) | 7.30 to 9.00 |
| COc1cc(C(=O)NCCCNC2CCCCC2)ccc1Nc1ncc2c(n1)N(C1CCCC1)CC(F)(F)C(=O)N2C [Example I-53] | PLK1 (Homo sapiens, UniProt P53350) | 7.30 to 9.00 |
| CCN1C(=O)C(F)(F)CN(C2CCCC2)c2nc(Nc3ccc(C(N)=O)cc3)ncc21 [Example I-139] | PLK1 (Homo sapiens, UniProt P53350) | 5.30 to 6.30 |
| COc1cc(C(=O)NCc2ccoc2)ccc1Nc1ncc2c(n1)N(C1CCCC1)CC(F)(F)C(=O)N2C [Example I-34] | PLK1 (Homo sapiens, UniProt P53350) | 7.30 to 9.00 |
| COc1cc(C(=O)NCCCNC(=O)OCC2c3ccccc3-c3ccccc32)ccc1Nc1ncc2c(n1)N(C1CCCC1)CC(F)(F)C(=O)N2C [Example I-73] | PLK1 (Homo sapiens, UniProt P53350) | 6.30 to 7.29 |
| COc1cc(C(=O)Nc2ccccc2)ccc1Nc1ncc2c(n1)N(C1CCCC1)CC(F)(F)C(=O)N2C [Example I-38] | PLK1 (Homo sapiens, UniProt P53350) | 6.30 to 7.29 |
| COc1cc(C(=O)NCCN)ccc1Nc1ncc2c(n1)N(C1CCCC1)CC(F)(F)C(=O)N2C [Example I-48] | PLK1 (Homo sapiens, UniProt P53350) | 7.30 to 9.00 |
| COc1cc(C(=O)NCCO)ccc1Nc1ncc2c(n1)N(C1CCCC1)CC(F)(F)C(=O)N2C [Example I-30] | PLK1 (Homo sapiens, UniProt P53350) | 7.30 to 9.00 |
| COc1cc(C(=O)NCC2CN(C(=O)OC(C)(C)C)C2)ccc1Nc1ncc2c(n1)N(C1CCCC1)CC(F)(F)C(=O)N2C [Example I-91] | PLK1 (Homo sapiens, UniProt P53350) | 7.30 to 9.00 |
| COc1cc(C(=O)N2CCOCC2)ccc1Nc1ncc2c(n1)N(C1CCCC1)CC(F)(F)C(=O)N2C [Example I-127] | PLK1 (Homo sapiens, UniProt P53350) | 7.30 to 9.00 |
